target: LTB4 receptor (Cavia porcellus); experiment: LTB4 receptor binding study; details: at 20 μM; 3H-LTB4, guinea-pig spleen membranes; read-out: Inh. of LTB4 rec. binding, %
Sequence (H0VYV8 1-348): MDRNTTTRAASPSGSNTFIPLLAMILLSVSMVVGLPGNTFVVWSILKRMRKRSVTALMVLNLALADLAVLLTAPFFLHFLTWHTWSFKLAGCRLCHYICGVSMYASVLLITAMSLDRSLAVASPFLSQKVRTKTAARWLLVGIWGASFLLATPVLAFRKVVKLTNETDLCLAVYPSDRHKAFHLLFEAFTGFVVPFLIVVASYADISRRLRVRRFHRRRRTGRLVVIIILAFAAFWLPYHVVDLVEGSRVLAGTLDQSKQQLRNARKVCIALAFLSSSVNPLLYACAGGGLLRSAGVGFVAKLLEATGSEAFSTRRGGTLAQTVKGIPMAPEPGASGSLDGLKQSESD
Reported Metric: inhibition at 20 µM (%)

Would you please look over these solved cases?
> print(dat)
                                   molecule                           target      reported.metric  number
1  CCCc1c(OCCCCOc2cccc(Sc3ccc(C(=O)O)cc3[N+](=O)[O-])c2)ccc(C(C)=O)c1O  LTB4 receptor (Cavia porcellus)  inhibition at 20 µM      65
2  O=C(O)c1ccccc1Sc1cccc(OCc2ccc3ccccc3n2)c1  LTB4 receptor (Cavia porcellus)  inhibition at 20 µM      38
3  CCCc1c(OCCOc2ccc(Sc3ccc(C(=O)O)cc3)cc2)ccc(C(C)=O)c1O  LTB4 receptor (Cavia porcellus)  inhibition at 20 µM      61

P = O=C(O)Cc1ccccc1Sc1ccc(OCc2ccc3ccccc3n2)cc1
Q = O=C(O)c1ccccc1Sc1ccc(OCCCCN2CCN(Cc3ccc(Cl)cc3)CC2)cc1
R = CCCc1c(OCCCCOc2cccc(Sc3ccc(C(=O)O)cc3)c2)ccc(C(C)=O)c1O
Problem: List these items ordered by inhibition at 20 µM, big to small. Respond with an ordered listing of the labels, as requested.
Result: R, P, Q

* * *

molecular target: LTD4 receptor (Cavia porcellus, UniProt Q2NNR5); construct: The membrane fraction was prepared from male guinea-pig lungs; from tissue; host or cells: male guinea-pig lung membranes; test: LTD4 receptor binding study; conditions: at 20 μM; 3H-LTD4, guinea-pig lung membranes; read-out: Inh. of LTD4 rec. binding, %
Sequence (Q2NNR5 whole entry): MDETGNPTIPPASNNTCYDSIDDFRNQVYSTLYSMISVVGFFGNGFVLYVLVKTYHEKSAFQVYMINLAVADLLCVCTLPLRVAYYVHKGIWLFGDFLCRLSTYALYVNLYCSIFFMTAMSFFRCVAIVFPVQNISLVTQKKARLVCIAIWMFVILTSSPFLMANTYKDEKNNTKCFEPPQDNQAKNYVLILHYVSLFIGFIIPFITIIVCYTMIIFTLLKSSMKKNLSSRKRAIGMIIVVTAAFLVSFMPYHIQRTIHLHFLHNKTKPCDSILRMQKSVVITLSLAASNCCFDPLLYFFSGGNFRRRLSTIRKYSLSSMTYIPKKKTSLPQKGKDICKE
Reported Metric: inhibition at 20 µM (%)

Would you please look over these solved cases?
> print(dat)
                                   compound      reported.metric  number
1  O=C(O)c1ccc(Sc2ccc(OCc3ccc4ccccc4n3)cc2)cc1 [Compound 24]  inhibition at 20 µM      95
2  O=C(O)Cc1ccc(Sc2ccc(OCc3ccc4ccccc4n3)cc2)cc1 [Compound 30]  inhibition at 20 µM      80
3  O=C(O)Cc1ccccc1Sc1cccc(OCc2ccc3cc(Cl)ccc3n2)c1 [Compound 31]  inhibition at 20 µM      83

A = O=C(O)c1ccccc1Sc1cccc(OCc2ccc3cc(Cl)ccc3n2)c1 [Compound 23]
B = O=C(O)Cc1ccccc1Sc1cccc(OCCCN2CCN(Cc3ccc(Cl)cc3)CC2)c1 [Compound 28]
Problem: Identify the item whose inhibition at 20 µM is the smaller number: A or B Write down the label attached to your selection.
Result: B

* * *

system: LTB4 production in rat polymorphonuclear cells; assay: Ex vivo inhibition of LTB4 production (LTB4 biosynthesis); format: cell-based
Reported Metric: Inh. of LTB4 biosynth., IC50 (µg/mL)

Would you please look over these solved cases?
> print(dat)
                                   molecule  number
1  O=C(O)c1ccccc1Sc1cccc(OCc2ccc3cc(Cl)ccc3n2)c1 [Compound 20]   0.035
2  O=C(O)c1ccc(Sc2ccc(OCc3ccc4ccccc4n3)cc2)cc1 [Compound 16]   0.004

P = O=C(O)c1ccccc1Sc1cccc(OCc2ccc3cc(Cl)ccc3n2)c1 [Compound 23]
Q = O=C(O)c1ccc(Sc2ccc(OCc3ccc4ccccc4n3)cc2)cc1 [Compound 24]
Problem: Identify the item whose Inh. of LTB4 biosynth., IC50 is the smaller number: P or Q Write down the label attached to your selection.
Result: Q
